- TARGET OF ASSAY: Cdk5/p25 (Homo sapiens, UniProt Q00535)
- PROTOCOL SUMMARY: Cyclin-Dependent Kinase 5 High Throughput Screening (cdk5-HTS) Assay
- Format: biochemical
- MEASUREMENT CONDITIONS: high throughput screen

STRUCTURE NOTATION: O=c1ccc2cnc(Nc3ccc4nn[nH]c4c3)nc2n1CC(F)(F)F
UNITS OF MEASURE: µM
IC50: 0.155
--
STRUCTURE NOTATION: Cc1ccc(Nc2ncc3ccc(=O)n(CC4CC4)c3n2)cc1NS(C)(=O)=O
UNITS OF MEASURE: µM
IC50: 0.23
--
STRUCTURE NOTATION: COc1cc(Nc2ncc3ccc(=O)n(C4CCCC4)c3n2)cc(C(F)(F)F)c1
UNITS OF MEASURE: µM
IC50: 0.21
--
STRUCTURE NOTATION: CCCn1c(=O)ccc2cnc(Nc3ccc4[nH]ncc4c3)nc21
UNITS OF MEASURE: µM
IC50: 0.032
--
STRUCTURE NOTATION: CCCn1c(=O)ccc2cnc(Nc3cc(OC)c(OC)c(OC)c3)nc21
UNITS OF MEASURE: µM
IC50: 0.3
--
STRUCTURE NOTATION: CCC(CC)n1c(=O)ccc2cnc(Nc3cc(F)c(NC(C)=O)c(Cl)c3)nc21
UNITS OF MEASURE: µM
IC50: 1.1
--
STRUCTURE NOTATION: CCCCn1c(=O)ccc2cnc(Nc3ccc4[nH]nnc4c3)nc21
UNITS OF MEASURE: µM
IC50: 0.0325
--
STRUCTURE NOTATION: CCC(CC)n1c(=O)ccc2cnc(Nc3cc(OC)cc(C(F)(F)F)c3)nc21
UNITS OF MEASURE: µM
IC50: 0.07
--
STRUCTURE NOTATION: CCn1c(=O)ccc2cnc(Nc3ccc(S(N)(=O)=O)cc3)nc21
UNITS OF MEASURE: µM
IC50: 0.064

----------
Reported IC50 values for the following compounds.
- TARGET OF ASSAY: cdk2/cyclinE (Homo sapiens, UniProt P24941)
- PROTOCOL SUMMARY: Cyclin-Dependent Kinase Assay cdk2/cyclinE
- MEASUREMENT CONDITIONS: read-out: cdk2/E IC50; Table 1

COMPOUND: CN(C)CCCN1CCN(c2ccc(Nc3ncc4ccc(=O)n(C5CCCCC5)c4n3)cc2)CC1
TARGET OF ASSAY: cdk2/cyclinE (Homo sapiens, UniProt P24941)
UNITS OF MEASURE: nM
IC50: 43

COMPOUND: O=c1ccc2cnc(Nc3ccc(SC(F)(F)F)cc3)nc2n1C1CC2CCC1C2 (stereo not shown)
TARGET OF ASSAY: cdk2/cyclinE (Homo sapiens, UniProt P24941)
UNITS OF MEASURE: nM
IC50: 511

COMPOUND: O=c1ccc2cnc(Nc3ccc(N4CCCCC4)cc3)nc2n1C1CCCCCC1
TARGET OF ASSAY: cdk2/cyclinE (Homo sapiens, UniProt P24941)
UNITS OF MEASURE: nM
IC50: 193

COMPOUND: CC1CN(c2ccc(Nc3ncc4ccc(=O)n(C5CC6CCC5C6)c4n3)cc2)CC(C)N1 (stereo not shown)
TARGET OF ASSAY: cdk2/cyclinE (Homo sapiens, UniProt P24941)
UNITS OF MEASURE: nM
IC50: 124
